- target entity: GIPC2, Q8TF65
- Sequence (Q8TF65 112-203): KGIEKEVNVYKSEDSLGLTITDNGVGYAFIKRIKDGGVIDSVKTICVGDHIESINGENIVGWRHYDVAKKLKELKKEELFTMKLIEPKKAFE
- assay text: holdup assay
- Set-up: key: below the threshold = too weak to quantify, mostly under pKd 3.1 to 4
- condition label: plain residues with an end cap or a label only (N-terminal biotin on a linker: ado-ado)
endpoint label: pKd

binder="DYSNLRETDI [ADRA1D, P25100]" result=3.8
binder="DFKHTKSFII [JAM2, P57087]" result="below the threshold"
binder="PGKKPEDSRV [SLCO2B1, O94956]" result="below the threshold"
binder="QLKSGRDSTV [TMEM178A, Q8NBL3]" result=3.87
binder="GVHSNDHSVV [LPAR1, Q92633]" result="below the threshold"
binder="KPDKQEEFYA [SDC3, O75056]" result="below the threshold"
binder="FHSIKQSTAV [CRHR1, P34998]" result="below the threshold"
binder="QLGSPTADLA [SIPA1, Q96FS4]" result="below the threshold"
binder="LLQEEWETVM [PTH1R, Q03431]" result="below the threshold"
binder="KIEDVEITLV [FCHSD2, O94868]" result="below the threshold"
binder="SRPHTNETSL [MCC, P23508]" result=4.08
binder="SQPLLVHDDV [KIT, P10721]" result="below the threshold"
binder="GNDPDRGTSI [GRID2, O43424]" result="below the threshold"
binder="KLQNPNQSVV [TYRP1, P17643]" result=3.67
binder="SAGADSETHC [SLCO1B1, Q9Y6L6]" result=3.71
binder="NTALVESEDL [PALLS, Q8WX93;Q8WX93-1]" result="below the threshold"
binder="HDDYFYHDEL [RCN2, Q14257]" result="below the threshold"
binder="LVEEEEPMNL [HDAC7, Q8WUI4]" result="below the threshold"
binder="MLPANYVEAI [NEB, P20929]" result="below the threshold"
binder="QRYPGNQTTC [CCL24, O00175]" result="below the threshold"
binder="AHGSTRDQSI [KCNB1, Q14721]" result="below the threshold"
binder="GSQSQVETEA [FKBP4, Q02790]" result=3.79
binder="PLATCDETSI [SEMA4F, O95754]" result=3.52
binder="TNSKQGETTV [FZD1, Q9UP38]" result=4.18
binder="VKQYADVEGF [HNRNPK, P61978;P61978-2]" result="below the threshold"
binder="ADEMICITTL [CACNA1D, Q01668]" result="below the threshold"
